- TEST DESCRIPTION: Oral bioavailability in Wistar rat at 10 mg/kg
- Format: ADME, organism-based
- PARTICULARS: in vivo
TEST READOUT: bioavailability (%)

// known answers, use as guide
O=C(Cn1nc(C(F)(F)F)c2c1CCCC2)Nc1sc2c(c1C(=O)N[C@@H]1CCNC1)CCCC2 4
CNCc1cn(CC(=O)Nc2sc3c(c2C(N)=O)CCCC3)nc1C(C)(C)C 16

(I) CNCc1cn(CC(=O)Nc2sc3c(c2C(N)=O)CCCC3)nc1C(F)(F)F
(II) CCNCc1cn(CC(=O)Nc2sc3c(c2C(N)=O)CCCC3)nc1C(F)(F)F
Query: Name the one with the greater bioavailability value, either I or II as given. API: response body contains the label of the selected item.
Response: II

----------
- TEST DESCRIPTION: Intrinsic clearance in human microsomes
- Assay type: ADME, Microsome
TEST READOUT: microsomal CLint (µL/min/mg)

CNCc1cn(CC(=O)Nc2sc3c(c2C(N)=O)CCCC3)nc1C(C)(C)C 15

(P) CNCc1cn(CC(=O)Nc2sc3c(c2C(=O)NC)CCCC3)nc1C(F)(F)F
(Q) NC(=O)c1c(NC(=O)Cn2nc(C(F)(F)F)c3c2CCNC3)sc2c1CCCC2
Query: Sorting ascending by microsomal CLint, which comes first: P or Q ? API: response body contains the label of the selected item.
Response: P

----------
- TEST DESCRIPTION: Solubility of the compound
- Type: physicochemical
TEST READOUT: solubility (µg/mL)

// known answers, use as guide
CNCc1cn(CC(=O)Nc2sc3c(c2C(N)=O)CCCC3)nc1C(F)(F)F 65
CCNCc1cn(CC(=O)Nc2sc3c(c2C(N)=O)CCCC3)nc1C(F)(F)F 107

(A) CNCc1cn(CC(=O)Nc2sc3c(c2C(N)=O)CCCC3)nc1C(C)(C)C
(B) O=C(Cn1nc(C(F)(F)F)c2c1CCCC2)Nc1sc2c(c1C(=O)N[C@@H]1CCNC1)CCCC2
Query: Name the one with the greater solubility value, either A or B as given. API: response body contains the label of the selected item.
Response: A
(A: 79 µg/mL, B: 20 µg/mL)

----------
- TEST DESCRIPTION: Intrinsic clearance in rat microsomes
- Type: ADME, Microsome
TEST READOUT: microsomal CLint (µL/min/mg)

NC(=O)c1c(NC(=O)Cn2nc(C(F)(F)F)c3c2CCNC3)sc2c1CCCC2 33

(a) CNCc1cn(CCC(=O)Nc2sc3c(c2C(N)=O)CCCC3)nc1C(F)(F)F
(b) CNCc1cn(CC(=O)Nc2sc3c(c2C(N)=O)CCCC3)nc1C(C)(C)C
(c) CNCc1cn(CC(=O)Nc2sc3c(c2C(=O)NC)CCCC3)nc1C(F)(F)F
Query: # rank by microsomal CLint, ascending (min first) Use the labels to give the ranking in the order requested.
Response: b, c, a

----------
- TEST DESCRIPTION: Intrinsic clearance in human microsomes
- Format: ADME, Microsome
TEST READOUT: microsomal CLint (µL/min/mg)

(P) CNCc1cn(CCC(=O)Nc2sc3c(c2C(N)=O)CCCC3)nc1C(F)(F)F
(Q) CNCc1cn(CC(=O)Nc2sc3c(c2C(N)=O)CCCC3)nc1C(F)(F)F
Query: Name the one with the greater microsomal CLint value, either P or Q as given. API: response body contains the label of the selected item.
Response: P
